The measured values listed here are drawn from patent US20040072907A1.

assay: Cytotoxicity in uninfected HI-HeLa cells (XTT, anticoxsackieviral assay); assay type: cell-based; settings: human, one day
property-label: CC50 at 1 day

Kindly indicate its recorded CC50 at 1 day. Item: CCOC(=O)c1ccc(OCCC2CCN(c3ccc(C)nn3)CC2)cc1 [Pirodavir, reference compound]
> 100 µM

---

system: HI-HeLa cells; test: Cytotoxicity in mock-infected HI-HeLa cells (XTT, antirhinoviral assay); assay type: cell-based; details: mock-infected HI-HeLa cells; line for HRV serotype-14; read-out: CC50
Property: CC50; scope: individual molecules

Provide measured CC50 value, entry: CCOC(=O)/C=C/[C@H](CCC(N)=O)NC(=O)[C@@H](CC(=O)[C@@H](NC(=O)SCC)C(C)C)Cc1ccccc1 [Compound 4]
> 320 µM

// Input: CCOC(=O)/C=C/[C@H](CCC(N)=O)NC(=O)[C@@H](CC(=O)[C@@H](NC(=O)OC1CCCC1)C(C)C)Cc1ccc(F)cc1 [Compound 25] . Output its CC50 only.
> 3 µM

State its CC50 for this molecule: CCOC(=O)/C=C/C(CCC(N)=O)NC(=O)C(CC(=O)C(NC(=O)SC1CCCC1)C(C)C)Cc1ccc(C(F)(F)F)cc1 (stereo not shown) [Compound 16]
> 3 µM

In one line, give reported CC50 of the entry CCOC(=O)/C=C/C(CCC(N)=O)NC(=O)C(CC(=O)C(NC(=O)SC1CCCC1)C(C)C)Cc1ccc(F)cc1 (stereo not shown) [Compound 14] .
> 10 µM

Look up CC50 of CCOC(=O)/C=C/C(CCC(N)=O)NC(=O)C(CC(=O)C(Cc1ccccc1)NC(=O)SC1CCCC1)Cc1ccc(F)cc1 (stereo not shown) [Compound 18] and report it.
> 3 µM

Give CC50 for the following molecule: Cc1cc(CCCCCCCOc2ccc(C3=N[C@@H](C)CO3)cc2)on1 [WIN 52084, reference compound]
> 10 µM

Please report CC50 for the following molecule: CCOC(=O)/C=C/[C@H](CCC(N)=O)NC(=O)[C@@H](CC(=O)[C@@H](NC(=O)SCC)C(C)C)Cc1ccc(F)cc1 [Compound 13]
> 3 µM

Note down CC50 recorded for CC(=O)N1CC/C(=C\C(CCC(N)=O)NC(=O)C(CC(=O)C(NC(=O)SC2CCCC2)C(C)C)Cc2ccc(C)cc2)C1=O (stereo not shown) [Compound 17]
> 10 µM

Identify measured CC50 associated with CCOC(=O)/C=C/C(CCC(N)=O)NC(=O)C(CC(=O)C(Cc1ccccc1)NC(=O)SC1CCCC1)Cc1ccc(C)cc1 (stereo not shown) [Compound 12]
> 1 µM

For the molecule CCOC(=O)/C=C/C(CCC(N)=O)NC(=O)C(CC(=O)C(NC(=O)OC1CCCC1)C(C)C)Cc1ccc(C)cc1 (stereo not shown) [Compound 20] , report CC50.
> 3 µM

---

tested on: HI-HeLa cells; assay: Cytotoxicity in mock-infected HI-HeLa cells (XTT, antirhinoviral assay); format: cell-based; conditions: mock-infected HI-HeLa cells; line for HRV serotype-14; read-out: CC50
property-label: CC50

* CCOC(=O)/C=C/C(CCC(N)=O)NC(=O)C(CC(=O)C(CC(C)C)NC(=O)SC1CCCC1)Cc1ccc(C)cc1 (stereo not shown) | > 10 µM

Fill in reported CC50 for this entry: Cc1cc(CCCCCOc2c(Cl)cc(C3=NCCO3)cc2Cl)on1 [WIN 54954, reference compound]
> 63 µM

State its CC50 for this compound: Cc1cc(CCCCCCCOc2ccc(C3=NCCO3)cc2)on1 [WIN 51711, reference compound]
> 60 µM

Identify measured CC50 associated with CCOC(=O)/C=C/C(CCC(N)=O)NC(=O)C(CC(=O)C(CC(C)C)NC(=O)OCc1ccccc1)Cc1ccccc1 (stereo not shown)
> 320 µM

Report measured CC50; entry is CCOC(=O)/C=C/[C@H](CCC(N)=O)NC(=O)[C@@H](CC(=O)[C@@H](NC(=O)SCC)C(C)C)Cc1ccc(C(F)(F)F)cc1
> 1 µM

Determine from records and report CC50 for CCOC(=O)/C=C/C(CCC(N)=O)NC(=O)C(CC(=O)C(NC(=O)SC1CCCC1)C(C)(C)C)Cc1ccccc1 (stereo not shown)
> 32 µM

Check the records and state CC50 for CCOC(=O)/C=C/C(CCC(N)=O)NC(=O)C(CC(=O)C(CC(C)C)NC1CCCC1)Cc1ccc(F)cc1 (stereo not shown)
> 3 µM
